# Procedure Details: TOX21_p53_BLA_p5_viability: Viability Assessment in the Tox21 HCT-116 p53 Agonism Beta-lactamase Assay, Phase 5 (AID 2283600)
Inconclusive results are not listed. Activity calls are given as the source filed them. Rule for the calls: active = hit-call score of the fitted dose curve at least 0.9, where 1 is the maximum; inconclusive = response in the unintended direction; inactive = score below 0.9.
Parameter call: string, one of active, inactive

Status in this test for O=C=NC1CCCCC1 ?
inactive

Same for O=C(Cl)c1ccccc1F
inactive

Same for CN(C)CCc1c[nH]c2cccc(OP(=O)(O)O)c12
inactive

Same for C=CCC1([C@H](C)CCC)C(=O)NC(=O)NC1=O
inactive

Same for C=CCC1([C@@H](C)CCC)C(=O)NC(=O)NC1=O
inactive

Same for COc1cc(OC)nc(Oc2cccc(Oc3nc(OC)cc(OC)n3)c2C(=O)O)n1
inactive

Same for BrCBr
inactive

Same for CC(=O)OCC(=O)[C@H]1CC[C@H]2[C@@H]3CC[C@H]4C[C@H](O)CC[C@]4(C)[C@H]3C(=O)C[C@]12C
inactive

Same for CC(=O)O[C@H]1C[C@H](O[C@H]2[C@@H](O)C[C@H](O[C@H]3[C@@H](O)C[C@H](OC4CC[C@@]5(C)[C@H](CC[C@@H]6[C@@H]5CC[C@]5(C)[C@@H](C7=CC(=O)OC7)CC[C@]65O)C4)O[C@@H]3C)O[C@@H]2C)O[C@H](C)[C@H]1O[C@@H]1O[C@H](CO)[C@@H](O)[C@H](O)[C@H]1O (some centres not stated)
active

Same for O=P(O)(O)C(Cl)(Cl)P(=O)(O)O
inactive

Same for CCCCCc1cc(O)c2c(c1)OC(C)(C)c1ccc(C)cc1-2
active

Same for CCCCCCC1CCOC1=O (configuration not stated)
inactive

Same for C[C@]12CC[C@H](OS(=O)(=O)O)CC1=CC[C@@H]1[C@@H]2CC[C@]2(C)C(=O)CC[C@@H]12
inactive

Same for CCOC(=O)c1cn2nc(OP(=S)(OCC)OCC)cc2nc1C
inactive

Same for Cc1c(Cl)c(=O)oc2cc(OP(=O)(OCCCl)OCCCl)ccc12
inactive

Same for O=C1C[C@@H]2OCC=C3CN4CC[C@]56c7ccccc7N1[C@H]5[C@H]2[C@H]3C[C@H]46 (tested in a mixture with another compound)
inactive

Same for COc1ccc2c(c1OC)C(=O)O[C@@H]2[C@H]1c2cc3c(cc2CCN1C)OCO3
inactive

Same for CN(C)C(=O)C(c1ccccc1)c1ccccc1
inactive

Same for N#CCCCl
inactive

Same for c1ccc2c(c1)cc1ccc3cccc4ccc2c1c34
inactive

Same for COP(=S)(OC)Oc1ccc([N+](=O)[O-])cc1Cl
inactive

Same for O=C(O)C(Cl)Br (configuration not stated)
inactive

Same for Cc1nnc2n1-c1sc(CCc3ccc(CC(C)C)cc3)cc1C(c1ccccc1Cl)=NC2C (configuration not stated)
active

Same for O=c1[nH]c(Cl)c(Cl)cc1Cl
inactive

Same for CC(=O)[C@H]1CC[C@H]2[C@@H]3CC[C@@H]4C[C@H](O)CC[C@]4(C)[C@H]3CC[C@]12C
inactive

Same for Oc1cc(Cl)c(Cl)c(Cl)c1Cl
inactive

Same for C(CCOCC1CO1)COCC1CO1 (configuration not stated)
inactive

Same for O=C(O)CCCc1ccc(N(CCCl)CCCl)cc1
inactive

Same for CC(C)CCCCCCCOP(=O)(Oc1ccccc1)Oc1ccccc1
inactive

Same for Cc1cc(C)cc(C(=O)OC2C[C@H]3CC[C@@H](C2)N3C)c1 (some centres not stated)
inactive

Same for Oc1ccc(Cl)cc1
inactive

Same for Cc1cccc(C#N)c1
inactive

Same for Cc1cc(C(C)(C)c2cc(C)c(O)c(C)c2)cc(C)c1O
active

Same for C[N+]1(C)[C@@H]2CC[C@H]1CC(OC(=O)c1c[nH]c3ccccc13)C2 (some centres not stated)
inactive

Same for CCOC(=O)C1OC1(C)c1ccccc1 (configuration not stated)
inactive

Same for OCCSCSCCO
inactive

Same for CC=C(CC)C(=O)NC(N)=O
inactive

Same for CCN(CC)C(=O)N[C@H]1C[C@@H]2c3cccc4[nH]cc(c34)C[C@H]2N(C)C1
inactive

Same for CCOC(=O)COc1ccc(Cl)cc1Cl
inactive

Same for Clc1c(Cl)c(Cl)c(Cl)c(Cl)c1Cl
inactive

Same for CCCCCCCCCCCCCCCCCC(=O)O
inactive

Same for CC(C)OC(=O)C(O)(c1ccc(Cl)cc1)c1ccc(Cl)cc1
inactive

Same for ClCc1ccc(Cl)cc1Cl
inactive

Same for C[C@H]1CC[C@]2(NC1)O[C@H]1C[C@H]3[C@@H]4CC[C@H]5C[C@@H](O)CC[C@]5(C)[C@H]4CC[C@]3(C)[C@H]1[C@@H]2C
inactive

Same for O=S(=O)(Cl)Cl
inactive

Same for CSSC
inactive

Same for CC[C@@H](CO)NC(=O)[C@@H]1C=C2c3cccc4[nH]cc(c34)C[C@H]2N(C)C1
inactive
